# tgt: Met (Homo sapiens (Human))
# assay-protocol: Met autophosphorylation ELISA in PC-3 cells
# Format: cell-based
# assay-setup: cellular, HGF-stimulated, phospho-Met ELISA, read-out: c-Met IC50
# Protocol: PC-3 prostate cancer cells (ATCC #CRL-1435) were seeded at 4×10^4 cells/well onto 24-well plates (Greiner #662165), in DMEM (Thermo Fisher #11995-040) containing 10% FBS (Thermo Fisher #26140-079), 1% MEM NEAA (Thermo Fisher #11140-050), 1% GlutaMax (Thermo Fisher #35050-061), and 1% Penicillin Streptomycin (Thermo Fisher #15140-122). […] IC50 values were calculated by nonlinear regression analysis using a 4-parameter logistic curve fit in ActivityBase XE (IDBS).
pIC50: −log10 of the molar value.
observation-type: pIC50

Below: 8 compounds and their reported pIC50.
{"columns": ["compound", "pIC50"],
 "data": [
  ["COc1nc2c(Oc3ncc(NC(=O)C4(C(=O)Nc5ccc(F)cc5)CC4)cc3F)ccnc2cc1OCC(N)=O", "6.52 to 7.00"],
  ["COc1nc2c(Oc3ncc(NC(=O)C4(C(=O)Nc5ccc(F)cc5)CC4)cc3F)ccnc2cc1OCCCN(C)C", "7.00 to 8.00"],
  ["CNC(=O)c1cc2c(Oc3ncc(NC(=O)C4(C(=O)Nc5ccc(F)cc5)CC4)cc3F)ccnc2cc1OC", "7.00 to 8.00"],
  ["COC(=O)c1cc2c(Oc3ccc(NC(=O)C4(C(=O)Nc5ccc(F)cc5)CC4)cn3)ccnc2cc1OC", "6.52 to 7.00"],
  ["COCCOc1cc2nccc(Oc3ncc(NC(=O)C4(C(=O)Nc5ccc(F)cc5)CC4)cc3F)c2nc1OC", "6.52 to 7.00"],
  ["COC(=O)c1cc2c(Oc3ncc(NC(=O)C4(C(=O)Nc5ccc(F)cc5)CC4)cc3Cl)ccnc2cc1OC", "7.00 to 8.00"],
  ["COc1nc2c(Oc3ncc(NC(=O)C4(C(=O)Nc5ccc(F)cc5)CC4)cc3F)ccnc2cc1O", "< 6.52"],
  ["COc1nc2c(Oc3ccc(NC(=O)C4(C(=O)Nc5ccc(F)cc5)CC4)cn3)ncnc2cc1OCCCN1CCOCC1", "6.52 to 7.00"]
]}

Provide reported pIC50 for each item, in the same order as listed.
1. COc1nc2c(Oc3ncc(NC(=O)C4(C(=O)Nc5ccc(F)cc5)CC4)cc3F)ccnc2cc1OCCN1CCOCC1
2. CNC(=O)c1cc2c(Oc3ncc(NC(=O)C4(C(=O)Nc5ccc(F)cc5)CC4)cc3Cl)ccnc2cc1OCC(C)O (stereo not shown)
3. CC(O)COc1cc2nccc(Oc3ncc(NC(=O)C4(C(=O)Nc5ccc(F)cc5)CC4)cc3Cl)c2cc1C(N)=O (stereo not shown)
4. COc1cc2nccc(Oc3ccc(NC(=O)C4(C(=O)Nc5ccc(F)cc5)CC4)cn3)c2cc1C(N)=O
5. COc1cc2nccc(Oc3ncc(NC(=O)C4(C(=O)Nc5ccc(F)cc5)CC4)cc3Cl)c2nc1OC
6. COc1cc2nccc(Oc3ncc(NC(=O)C4(C(=O)Nc5ccc(F)cc5)CC4)cc3OC)c2nc1OC
7. COc1cc2nccc(Oc3ccc(NC(=O)C4(C(=O)Nc5ccc(F)cc5)CC4)cn3)c2nc1OC
8. COc1ccc(COc2cc3nccc(Oc4ncc(NC(=O)C5(C(=O)Nc6ccc(F)cc6)CC5)cc4F)c3nc2OC)cc1

(A)
1: 7.00 to 8.00; 2: 7.00 to 8.00; 3: 7.00 to 8.00; 4: 6.52 to 7.00; 5: 7.00 to 8.00; 6: < 6.52; 7: 6.52 to 7.00; 8: 6.52 to 7.00

Hey, can you go through the list below and give me pIC50 for every item?
1. COc1cc2nccc(Oc3ncc(NC(=O)C4(C(=O)Nc5ccc(F)cc5)CC4)cc3F)c2cc1-c1ncc[nH]1
2. COc1cc2nccc(Oc3ccc(NC(=O)C4(C(=O)Nc5ccc(F)cc5)CC4)cn3)c2cc1-c1cn[nH]c1
3. CCNC(=O)c1cc2c(Oc3ncc(NC(=O)C4(C(=O)Nc5ccc(F)cc5)CC4)cc3Cl)ccnc2cc1OC
4. COc1cc2nccc(Oc3ncc(NC(=O)C4(C(=O)Nc5ccc(F)cc5)CC4)cc3Cl)c2cc1-c1ncc[nH]1
5. COc1cc2nccc(Oc3ncc(NC(=O)C4(C(=O)Nc5ccc(F)cc5)CC4)cc3C(F)(F)F)c2nc1OC
6. COc1cc2nccc(Oc3nc(F)c(NC(=O)C4(C(=O)Nc5ccc(F)cc5)CC4)cc3F)c2nc1OC
7. CNC(=O)c1cc2c(Oc3ncc(NC(=O)C4(C(=O)Nc5ccc(F)cc5)CC4)cc3Cl)ccnc2cc1OCCO

(A)
1. 7.00 to 8.00
2. 7.00 to 8.00
3. 7.00 to 8.00
4. 7.00 to 8.00
5. < 6.52
6. 7.00 to 8.00
7. 7.00 to 8.00

I have 5 compounds here; please give me pIC50 for each one.
1. COc1cc2nccc(Oc3ncc(NC(=O)C4(C(=O)Nc5ccc(F)cc5)CC4)cc3F)c2nc1OC
2. CCc1noc(-c2cc3c(Oc4ncc(NC(=O)C5(C(=O)Nc6ccc(F)cc6)CC5)cc4F)ccnc3cc2OC)n1
3. COc1cc2nccc(Oc3ncc(NC(=O)C4(C(=O)Nc5ccc(F)cc5)CC4)cc3Cl)c2cc1-c1nnco1
4. O=C(Nc1ccc(F)cc1)C1(C(=O)Nc2cnc(Oc3ccnc4cc5c(nc34)OCCO5)c(Cl)c2)CC1
5. CNC(=O)c1cc2c(Oc3ncc(NC(=O)C4(C(=O)Nc5ccc(F)cc5)CC4)cc3Cl)ccnc2cc1OC

(A)
["7.00 to 8.00", "< 6.52", "7.00 to 8.00", "< 6.52", "7.00 to 8.00"]

###

Kindly supply the reported IC50 values for the records listed here.
# tgt: Met (Homo sapiens (Human), UniProt P08581)
# Sequence (P08581 25-1390): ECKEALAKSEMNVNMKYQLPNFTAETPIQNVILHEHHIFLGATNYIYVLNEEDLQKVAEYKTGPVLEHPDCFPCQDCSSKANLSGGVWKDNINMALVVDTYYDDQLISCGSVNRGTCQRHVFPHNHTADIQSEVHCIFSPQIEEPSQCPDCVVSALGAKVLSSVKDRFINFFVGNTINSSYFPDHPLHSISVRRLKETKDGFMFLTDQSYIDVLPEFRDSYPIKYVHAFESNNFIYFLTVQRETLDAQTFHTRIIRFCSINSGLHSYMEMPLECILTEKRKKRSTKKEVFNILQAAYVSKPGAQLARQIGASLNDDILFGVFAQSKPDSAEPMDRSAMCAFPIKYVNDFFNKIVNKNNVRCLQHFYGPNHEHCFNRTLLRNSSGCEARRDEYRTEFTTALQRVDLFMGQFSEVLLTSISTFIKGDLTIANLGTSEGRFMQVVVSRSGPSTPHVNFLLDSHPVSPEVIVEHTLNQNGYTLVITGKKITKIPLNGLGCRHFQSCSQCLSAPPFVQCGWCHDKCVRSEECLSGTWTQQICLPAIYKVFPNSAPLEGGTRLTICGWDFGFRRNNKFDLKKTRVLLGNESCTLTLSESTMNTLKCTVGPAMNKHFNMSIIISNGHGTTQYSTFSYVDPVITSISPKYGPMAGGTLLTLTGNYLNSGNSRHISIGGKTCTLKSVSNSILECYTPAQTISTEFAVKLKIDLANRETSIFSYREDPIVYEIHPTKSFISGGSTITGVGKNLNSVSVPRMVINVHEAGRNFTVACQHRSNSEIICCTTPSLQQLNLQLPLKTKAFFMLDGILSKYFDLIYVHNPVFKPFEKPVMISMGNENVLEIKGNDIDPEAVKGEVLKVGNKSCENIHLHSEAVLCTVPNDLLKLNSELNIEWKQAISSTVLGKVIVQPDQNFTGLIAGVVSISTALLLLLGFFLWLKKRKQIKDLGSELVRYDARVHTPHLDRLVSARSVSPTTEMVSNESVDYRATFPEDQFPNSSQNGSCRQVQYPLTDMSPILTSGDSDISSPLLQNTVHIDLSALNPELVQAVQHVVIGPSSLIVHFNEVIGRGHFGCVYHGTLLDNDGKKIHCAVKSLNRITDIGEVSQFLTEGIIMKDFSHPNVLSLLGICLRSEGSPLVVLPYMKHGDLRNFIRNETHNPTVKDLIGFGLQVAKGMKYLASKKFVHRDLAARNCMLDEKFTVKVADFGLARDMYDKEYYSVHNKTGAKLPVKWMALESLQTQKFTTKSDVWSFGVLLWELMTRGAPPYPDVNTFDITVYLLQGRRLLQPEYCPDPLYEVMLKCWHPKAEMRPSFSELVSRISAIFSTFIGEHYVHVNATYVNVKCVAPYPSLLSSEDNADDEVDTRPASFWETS
# assay-protocol: Met autophosphorylation ELISA in PC-3 cells
# Format: cell-based
# assay-setup: cellular, HGF-stimulated, phospho-Met ELISA, read-out: c-Met IC50

Please review the following examples before continuing.
{"columns": ["compound-string", "IC50"],
 "data": [
  ["COc1cc2nccc(Oc3ncc(NC(=O)C4(C(=O)Nc5ccc(F)cc5)CC4)cc3C#N)c2nc1OC", "> 300 nM"],
  ["COCCOc1nc2c(Oc3ncc(NC(=O)C4(C(=O)Nc5ccc(F)cc5)CC4)cc3F)ccnc2cc1OC", "> 300 nM"],
  ["COc1cc2nccc(Oc3ccc(NC(=O)C4(C(=O)Nc5ccc(F)cc5)CC4)c(OC)n3)c2nc1OC", "100 to 300 nM"]
]}

Consider the record given below.
(Q) Please give the measured IC50 for this compound: COc1cc2nccc(Oc3ccc(NC(=O)C4(C(=O)Nc5ccc(F)cc5)CC4)c(C)n3)c2nc1OC
(A) > 300 nM

###

# tgt: Mer (Homo sapiens (Human), UniProt Q12866)
# Sequence (Q12866 21-999): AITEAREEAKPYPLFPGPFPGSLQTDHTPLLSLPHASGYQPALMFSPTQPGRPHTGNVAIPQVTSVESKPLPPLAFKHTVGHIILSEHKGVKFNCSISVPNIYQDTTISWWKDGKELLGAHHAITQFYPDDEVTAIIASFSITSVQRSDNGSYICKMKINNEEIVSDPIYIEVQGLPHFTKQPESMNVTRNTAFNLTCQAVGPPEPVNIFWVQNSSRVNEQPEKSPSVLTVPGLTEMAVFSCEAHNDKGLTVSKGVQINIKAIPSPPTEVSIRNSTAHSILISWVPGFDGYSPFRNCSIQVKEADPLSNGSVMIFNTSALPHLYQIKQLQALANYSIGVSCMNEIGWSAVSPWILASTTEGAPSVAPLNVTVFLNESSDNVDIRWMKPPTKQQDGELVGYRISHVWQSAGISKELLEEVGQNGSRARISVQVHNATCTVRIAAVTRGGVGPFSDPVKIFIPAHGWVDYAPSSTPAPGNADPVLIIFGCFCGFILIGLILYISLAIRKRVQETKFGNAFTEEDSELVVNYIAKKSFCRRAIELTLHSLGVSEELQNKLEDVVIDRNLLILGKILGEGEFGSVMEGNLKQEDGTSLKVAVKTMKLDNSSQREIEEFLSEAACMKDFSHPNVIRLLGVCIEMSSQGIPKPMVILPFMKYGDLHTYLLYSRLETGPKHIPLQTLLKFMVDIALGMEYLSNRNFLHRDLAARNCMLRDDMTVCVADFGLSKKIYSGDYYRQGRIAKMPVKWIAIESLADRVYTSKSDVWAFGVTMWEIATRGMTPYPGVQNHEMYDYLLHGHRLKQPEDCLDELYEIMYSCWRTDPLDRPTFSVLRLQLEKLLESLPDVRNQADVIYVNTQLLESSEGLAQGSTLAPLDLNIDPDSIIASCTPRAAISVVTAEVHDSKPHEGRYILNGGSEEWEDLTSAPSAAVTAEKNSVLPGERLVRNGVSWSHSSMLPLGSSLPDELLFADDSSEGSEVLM
# assay-protocol: Mer autophosphorylation ELISA in transient transfected 293A cells
# Assay type: cell-based
# assay-setup: cellular, MERTK-transfected 293A cells, phospho-Mer ELISA
I'd be grateful if you could share measured IC50 for these entries.

{"columns": ["compound", "IC50"],
 "data": [
  ["COCCOc1cc2nccc(Oc3ncc(NC(=O)C4(C(=O)Nc5ccc(F)cc5)CC4)cc3F)c2nc1OC [Compound 116]", "10 to 100 nM"]
]}

The following compounds each have a reported value; give each one's IC50.
1. COc1cc2nccc(Oc3ncc(NC(=O)C4(C(=O)Nc5ccc(F)cc5)CC4)cc3Cl)c2cc1C(N)=O [Compound 18]
2. COc1nc2c(Oc3ccc(NC(=O)C4(C(=O)Nc5ccc(F)cc5)CC4)cn3)ncnc2cc1OCCCN1CCOCC1 [Compound 155]
3. CNC(=O)c1cc2c(Oc3ncc(NC(=O)C4(C(=O)Nc5ccc(F)cc5)CC4)cc3F)ccnc2cc1OC [Compound 22]

(A)
["10 to 100 nM", "100 to 300 nM", "10 to 100 nM"]

###

# tgt: Human Axl (Homo sapiens (Human), UniProt P30530, Q764R)
# Sequence (P30530 473-894 Q764R): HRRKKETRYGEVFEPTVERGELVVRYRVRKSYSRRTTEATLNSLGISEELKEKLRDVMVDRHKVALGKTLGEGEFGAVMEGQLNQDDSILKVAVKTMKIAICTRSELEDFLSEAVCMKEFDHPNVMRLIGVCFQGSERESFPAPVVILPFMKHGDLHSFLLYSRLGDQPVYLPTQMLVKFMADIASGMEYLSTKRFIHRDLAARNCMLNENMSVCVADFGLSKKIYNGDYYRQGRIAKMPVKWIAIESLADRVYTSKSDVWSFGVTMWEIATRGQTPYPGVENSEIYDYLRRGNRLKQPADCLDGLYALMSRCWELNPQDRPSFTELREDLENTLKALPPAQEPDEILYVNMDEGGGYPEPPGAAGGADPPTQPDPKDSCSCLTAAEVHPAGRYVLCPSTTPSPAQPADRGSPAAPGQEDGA
# assay-protocol: Human AXL kinase assay (33P radiometric, KinaseProfiler)
# assay-setup: 10 μM ATP
Would you mind telling me the reported IC50 of each entry?

Below are worked cases with known answers.
{"columns": ["compound", "endpoint-value"],
 "data": [
  ["COc1cc2nccc(Oc3ncc(NC(=O)C4(C(=O)Nc5ccc(F)cc5)CC4)cc3Cl)c2cc1C(N)=O [Compound 18]", "≤ 10 nM"],
  ["COc1cc2nccc(Oc3ncc(NC(=O)C4(C(=O)Nc5ccc(F)cc5)CC4)cc3F)c2nc1OC [Compound 82]", "≤ 10 nM"]
]}

Below are some compounds; for each one, tell me its IC50.
1. COC(=O)c1cc2c(Oc3ccc(NC(=O)C4(C(=O)Nc5ccc(F)cc5)CC4)cn3)ccnc2cc1OC [Compound 10]
2. COc1cc2nccc(Oc3ccc(NC(=O)C4(C(=O)Nc5ccc(F)cc5)CC4)cn3)c2nc1OC [Compound 81]

(A)
1: ≤ 10 nM; 2: 10 to 100 nM

Required: IC50, one value per compound below.
1. COc1cc2nccc(Oc3ccc(NC(=O)C4(C(=O)Nc5ccc(F)cc5)CC4)cn3)c2cc1C(N)=O [Compound 16]
2. COC(=O)c1cc2c(Oc3ncc(NC(=O)C4(C(=O)Nc5ccc(F)cc5)CC4)cc3Cl)ccnc2cc1OC [Compound 11]
3. COc1cc2nccc(Oc3ccc(NC(=O)C4(C(=O)Nc5ccc(F)cc5)CC4)cn3)c2cc1-c1cn[nH]c1 [Compound 60]

(A)
1: 10 to 100 nM; 2: ≤ 10 nM; 3: ≤ 10 nM

The origin of these recorded values is patent US11673897B2.
